# Tested on: S. aureus clinical strain 043SC (MRSA)
# Test context: 24 h
No end group written: not given here.
Recorded MIC for the following substances
Only the number, expressed in µg/mL, is required.

# count of solved cases: 2
- Substance: "KRRWPWWPWRLI-NH2 [Retro-omiganan TFA^−]"
  Unit text: "µg/mL"
  MIC: 8
- Substance: "ILRWPWWPWRRK-NH2 [Omiganan TFA^−]"
  Unit text: "µg/mL"
  MIC: 8

Bench note: what MIC did KRRWPWWPWRLI-NH2 [Retro-omiganan Cl^−] show?
8

Bench note: what MIC did KRRWPWWPWRLI-NH2 [Retro-omiganan AcO^−] show?
16

Bench note: what MIC did ILRWPWWPWRRK-NH2 [Omiganan AcO^−] show?
8

Bench note: what MIC did ILRWPWWPWRRK-NH2 [Omiganan Cl^−] show?
8

---

# Tested on: S. aureus ATCC 25923
# Test context: ATCC 25923, reference strain
No end group written: not given here.
Recorded MIC for the following substances
Please state the number and follow it with the unit.

- Substance: "ILRWPWWPWRRK-NH2 [Omiganan AcO^−]"
  MIC: "16 µg/mL"
- Substance: "ILRWPWWPWRRK-NH2 [Omiganan Cl^−]"
  MIC: "16 µg/mL"
- Substance: "ILRWPWWPWRRK-NH2 [Omiganan TFA^−]"
  MIC: "16 µg/mL"

Here's the next entry for you.
Bench note: what MIC did KRRWPWWPWRLI-NH2 [Retro-omiganan TFA^−] show?
8 µg/mL

---

# System: human keratinocytes (HaCaT)
# Type: cell-based
# Test context: 24 h
No end group written: not given here.
Recorded IC50 for the following substances
Only the number, expressed in µg/mL, is required.

- Substance: "KRRWPWWPWRLI-NH2 [Retro-omiganan AcO^−]"
  Unit text: "µg/mL"
  IC50: 23.66
- Substance: "ILRWPWWPWRRK-NH2 [Omiganan TFA^−]"
  Unit text: "µg/mL"
  IC50: 77.10
- Substance: "KRRWPWWPWRLI-NH2 [Retro-omiganan Cl^−]"
  Unit text: "µg/mL"
  IC50: 26.66
- Substance: "KRRWPWWPWRLI-NH2 [Retro-omiganan TFA^−]"
  Unit text: "µg/mL"
  IC50: 29.51
- Substance: "ILRWPWWPWRRK-NH2 [Omiganan Cl^−]"
  Unit text: "µg/mL"
  IC50: 63.99

Here's the next entry for you.
Please tell me: IC50 of ILRWPWWPWRRK-NH2 [Omiganan AcO^−] , system human keratinocytes (HaCaT)?
73.72

---

Recorded MBIC for the following substances
# Test system: S. aureus clinical strain 051N (MRSA) biofilm
# Test context: clinical strain 051N biofilm, 24 h
No end group written: not given here.
Only the number, expressed in µg/mL, is required.

# count of solved cases: 3
- Substance: "ILRWPWWPWRRK-NH2 [Omiganan TFA^−]"
  Unit text: "µg/mL"
  MBIC: 32
- Substance: "KRRWPWWPWRLI-NH2 [Retro-omiganan Cl^−]"
  Unit text: "µg/mL"
  MBIC: 16
- Substance: "ILRWPWWPWRRK-NH2 [Omiganan Cl^−]"
  Unit text: "µg/mL"
  MBIC: 32

Please tell me: MBIC of ILRWPWWPWRRK-NH2 [Omiganan AcO^−] , system S. aureus clinical strain 051N (MRSA) biofilm?
16

Please tell me: MBIC of KRRWPWWPWRLI-NH2 [Retro-omiganan TFA^−] , system S. aureus clinical strain 051N (MRSA) biofilm?
32

Please tell me: MBIC of KRRWPWWPWRLI-NH2 [Retro-omiganan AcO^−] , system S. aureus clinical strain 051N (MRSA) biofilm?
32
